List of Ki tested on human RIP1 kinase domain (2-375) (Homo sapiens (Human), UniProt Q13546).
Sequence (Q13546 2-375): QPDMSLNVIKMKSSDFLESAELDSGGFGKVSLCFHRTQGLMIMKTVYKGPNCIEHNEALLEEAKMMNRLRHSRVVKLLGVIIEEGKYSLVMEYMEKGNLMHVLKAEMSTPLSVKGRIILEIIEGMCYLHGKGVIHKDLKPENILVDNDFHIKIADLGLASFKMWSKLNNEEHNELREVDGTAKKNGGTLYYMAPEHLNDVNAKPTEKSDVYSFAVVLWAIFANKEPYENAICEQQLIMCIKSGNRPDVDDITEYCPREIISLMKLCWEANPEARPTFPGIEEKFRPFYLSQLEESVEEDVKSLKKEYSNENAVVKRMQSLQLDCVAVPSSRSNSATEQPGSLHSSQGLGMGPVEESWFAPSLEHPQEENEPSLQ

GET /values?readout=Ki&item= N#CC[S@@+]([O-])c1nc2n(n1)[C@H](c1ccccc1Cl)C[C@@H]2F (single isomer, unassigned) [Example 94]
4 nM

GET /values?readout=Ki&item= O=S(=O)(c1nc2n(n1)[C@H](c1ccccc1)C[C@@H]2F)[C@H]1C[C@@H](O)C1 (single isomer, unassigned) [Example 225]
300 nM

GET /values?readout=Ki&item= O=S(=O)(c1nc2n(n1)[C@H](c1ccccc1)C[C@@H]2F)C1CC1(F)F (mixture of isomers) [Example 118]
4 nM

----------
molecular target: human RIP1 kinase domain (2-375) (Homo sapiens (Human))
Label Yes when Ki < 20 nM; otherwise No.

Problem: For the compound O=S(=O)(c1nc2n(n1)[C@H](c1c(F)cccc1F)C[C@@H]2F)C(F)(F)F (single isomer, unassigned) , is Ki under 20 nM?
Yes

Problem: For the compound O=S(=O)(CC(F)(F)F)c1nc2n(n1)[C@H](c1ccccc1)C[C@@H]2F (single isomer, unassigned) , is Ki under 20 nM?
No

Problem: For the compound C[C@@H](F)S(=O)(=O)c1nc2n(n1)[C@H](c1ccccc1)C[C@@H]2F (single isomer, unassigned) , is Ki under 20 nM?
Yes

Problem: For the compound O=S(=O)(c1nc2n(n1)[C@H](c1ccccc1)C[C@@H]2F)[C@H]1C[C@H](OC(F)F)C1 , is Ki under 20 nM?
Yes

Problem: For the compound [O-][S+](Cc1ccccn1)c1nc2n(n1)[C@H](c1ccccc1)C[C@@H]2F (stereo partly drawn) , is Ki under 20 nM?
No

Problem: For the compound COCS(=O)(=O)c1nc2n(n1)[C@H](c1ccccc1)C[C@@H]2F (single isomer, unassigned) , is Ki under 20 nM?
No

Problem: For the compound [O-][S@+](CF)c1nc2n(n1)[C@H](c1cc(F)ccc1F)C[C@@H]2F (single isomer, unassigned) , is Ki under 20 nM?
No

Problem: For the compound [O-][S+](c1nc2n(n1)[C@H](c1ccccc1)C[C@@H]2F)C(F)F (mixture of isomers) , is Ki under 20 nM?
No

Problem: For the compound O=S(=O)(c1nc2n(n1)[C@@H](c1cccc(F)c1F)C[C@H]2F)C1CC1 (single isomer, unassigned) , is Ki under 20 nM?
No

Problem: For the compound O=S(=O)(c1nc2n(n1)[C@H](c1cc(Cl)ccc1F)C[C@@H]2F)C1CC1 (single isomer, unassigned) , is Ki under 20 nM?
No

Problem: For the compound O=S(=O)(c1nc2n(n1)[C@H](c1ccccc1)C[C@@H]2F)C1CC(F)(F)C1 (single isomer, unassigned) , is Ki under 20 nM?
Yes

Problem: For the compound [O-][S@@+](CF)c1nc2n(n1)[C@H](c1cc(F)ccc1F)C[C@@H]2F (single isomer, unassigned) , is Ki under 20 nM?
Yes

Problem: For the compound C[S+]([O-])c1nc2n(n1)[C@H](c1ccccc1)C[C@@H]2F (stereo partly drawn) , is Ki under 20 nM?
No

Problem: For the compound O=S(=O)(c1nc2n(n1)[C@H](c1cccc(F)c1F)C[C@@H]2F)[C@@H]1CC1(F)F (single isomer, unassigned) , is Ki under 20 nM?
Yes

Problem: For the compound [O-][S@@+](CF)c1nc2n(n1)[C@H](c1ccccc1)C[C@@H]2F (single isomer, unassigned) , is Ki under 20 nM?
Yes

Problem: For the compound CC[S@+]([O-])c1nc2n(n1)[C@H](c1ccccc1)C[C@@H]2F (single isomer, unassigned) , is Ki under 20 nM?
Yes

Problem: For the compound O=S(=O)(c1nc2n(n1)[C@H](c1cccc(F)c1F)C[C@@H]2F)C1CC1 (single isomer, unassigned) , is Ki under 20 nM?
Yes

Problem: For the compound [O-][S@+](CF)c1nc2n(n1)[C@H](c1ccccc1Cl)C[C@@H]2F (single isomer, unassigned) , is Ki under 20 nM?
No

Problem: For the compound O=S(=O)(CC1CC1)c1nc2n(n1)[C@H](c1ccccc1)C[C@@H]2F (single isomer, unassigned) , is Ki under 20 nM?
No

Problem: For the compound O=S(=O)(c1nc2n(n1)[C@H](c1ccccc1)C[C@@H]2F)C1CC1 , is Ki under 20 nM?
Yes

Problem: For the compound O=S(=O)(c1nc2n(n1)[C@H](c1cccc(F)c1Cl)C[C@@H]2F)C1CC1 (single isomer, unassigned) , is Ki under 20 nM?
Yes

Problem: For the compound N#CC[S@@+]([O-])c1nc2n(n1)[C@H](c1cccc(F)c1)C[C@@H]2F (single isomer, unassigned) , is Ki under 20 nM?
Yes

Problem: For the compound [O-][S@+](c1nc2n(n1)[C@H](c1ccccc1)C[C@@H]2F)C(F)F , is Ki under 20 nM?
Yes

Problem: For the compound O=S(=O)(c1nc2n(n1)[C@H](c1ccccc1)C[C@@H]2F)[C@H]1C[C@@H]1C(F)(F)F (mixture of isomers) , is Ki under 20 nM?
Yes

Problem: For the compound C[C@H](F)S(=O)(=O)c1nc2n(n1)[C@H](c1ccccc1)C[C@@H]2F (single isomer, unassigned) , is Ki under 20 nM?
Yes

Problem: For the compound [O-][S+](c1nc2n(n1)[C@H](c1ccccc1)C[C@@H]2F)C1CC(F)(F)C1 (stereo partly drawn) , is Ki under 20 nM?
Yes

Problem: For the compound O=S(=O)(c1nc2n(n1)[C@H](c1ccc(F)cc1)C[C@@H]2F)C1CC1 (single isomer, unassigned) , is Ki under 20 nM?
Yes
